# Tested on: HCT-116
# assay explanation: Growth inhibition of human HCT116 cells at 50 uM after 48 hrs by MTT assay
# Format: functional
# stated conditions: HCT-116, 48 h, read-out: GI
Label scheme for inhibition of growth at 50 µM: lower than 20% is No, 20% and above is Yes.

Answered cases to consult:
>  <molecule>
Clc1ccc(C2=NC(c3ccccc3)c3c(ccc4ccccc34)O2)cc1 (configuration not stated)

>  <tested system>
HCT-116

>  <classification>
Yes

$$$$
>  <molecule>
Cc1ccc(C2=NC(c3ccc(C)cc3)c3c(ccc4ccccc34)O2)cc1 (configuration not stated)

>  <tested system>
HCT-116

>  <classification>
Yes

$$$$
>  <molecule>
Cc1ccc(C2N=C(c3ccccc3)Oc3ccc4ccccc4c32)cc1 (configuration not stated)

>  <tested system>
HCT-116

>  <classification>
No

$$$$
>  <molecule>
Clc1ccc(C2=NC(c3ccc(Cl)cc3)c3c(ccc4ccccc34)O2)cc1 (configuration not stated)

>  <tested system>
HCT-116

>  <classification>
No

$$$$
>  <molecule>
COc1ccc(C2=NC(c3ccc(OC)cc3)c3c(ccc4ccccc34)O2)cc1 (configuration not stated)

>  <tested system>
HCT-116

>  <classification>
Yes

$$$$

IN: Kindly determine if inhibition of growth at 50 µM recorded for COc1ccc(C2=NC(c3ccc(C)cc3)c3c(ccc4ccccc34)O2)cc1 (configuration not stated) is above or exactly 20%.
OUT: No

IN: Kindly determine if inhibition of growth at 50 µM recorded for Fc1ccc(C2=NC(c3ccc(F)cc3)c3c(ccc4ccccc34)O2)cc1 (configuration not stated) is above or exactly 20%.
OUT: Yes

From: ChEMBL document CHEMBL2086288
